ASSAY_PROCEDURE: NCI Yeast Anticancer Drug Screen. Data for the sgs1 mgt1 strain (AID 161)
CONDITION_DESCRIPTION: S. cerevisiae sgs1 mgt1 strain, at 50.0 µM (retest, dose inferred, filed as 5.0), stronger effect = higher value
The panel holds about 79,000 compounds, 15% with a hit somewhere; the sample as a whole holds those more often.
# cutoff 10% applies to growth inhibition; >= gives Criterion met, < gives Criterion not met

Here are 2 molecules together with their reported answers.
MOLECULE	DISCRETE_LABEL
Cc1ccc(S(=O)(=O)Nc2ccc3c(c2)C(O)c2ccccc2-3)cc1 (stereo unspecified)	Criterion not met
N#CSC1CCCCNC1=O (stereo unspecified)	Criterion met

Please tell me: is the molecule O=c1[nH]c2ccccc2c2nc3ccccc3n12 at or over 10% in terms of growth inhibition?
Criterion met

Please tell me: is the molecule CCOc1ccc(C(=O)CCC(=O)O)c(C)c1 at or over 10% in terms of growth inhibition?
Criterion not met

Please tell me: is the molecule CC[C@@]1(OC(=O)CN(C)C)C(=O)OCc2c1cc1n(c2=O)Cc2cc3c(N)cccc3nc2-1 at or over 10% in terms of growth inhibition?
Criterion met

Please tell me: is the molecule CCOC(=O)CNC(=O)c1[nH]cnc1/N=N/N(C)C at or over 10% in terms of growth inhibition?
Criterion not met
